Experiment Description: yeast display, Sf9 membrane polyspecificity reagent, FACS + sequencing; frameworks hold sequencing errors
Value Type: polyreactivity (PSR sort gate)

Guide cases for polyreactivity (PSR sort gate), answers given:
1) QVQLVESGVALVQAAGSLRLRCAAYGSTFSYNAMGWYRQATGKERELVAAISGSGGTTYYADSVKGRFTISRDNAKNTVYLQMNSLKPEDTAVYYCAAELTRYRYFYHKRPMDYWGQGTQVTVSS
low polyreactivity
2) QVQLVESGGGLVQAGASLRLSCASSGSIFPGYDMGWYRQAPGKEREMVAAITTGGSTYYADSVKGRFTISRDNAKNTVYLQMNSLKPEDTAVYYCAAVYTGSGKRYYKGYYWGQGSQVTVSS
low polyreactivity
3) QVHLVETGGGLVQAGGSLRLSCAASGSIFFVYAMGCYRPAPGKERELVAAISNDGSTNYADSVKGRFTISRDNAKNTVYLQMNCLIPEDTAVYYCAKDTRTKYDYWGQGTQVTVSS
low polyreactivity
4) QVQLVESGGGLVQAGGSLRLSCAASGRTFSRNAMGWYRQAPGKERELVAAITSSGGSTYYADSVKGRFTISRDNAKNTVYLQMNSLKPEDTAVYYCNADATYRRGGGDYWGQGTQVTVSS
high polyreactivity
5) QVQLVESGGGLVQAGGSLRLSCAASGGIFPKNAMGWYRQAPGKERELVAAINWSGGTTNYADSVKGRFTISRDNAKNTVYLQMNSLKPEDTAVYYCAKQGLWIFVVVEMDYWGQGTQVNVSS
low polyreactivity

Exercise: Give the value of polyreactivity (PSR sort gate) reported for the following: QVQLVESGGGLVQAGGSLRLSCAASGSTFRSNAMGWYRQAPGKERELVAAIRYSGARTYYADSVKGRFTISRDNAKNTVYLQMNSLKPEDTAVYYCAATLYTRTYSWMDYWGQGTQVTVSS
Solution: high polyreactivity

Exercise: Hello, please tell me recorded polyreactivity (PSR sort gate) for this one: QVQLEESGGGLVQAGGSLRLSCAASGITFWHNTMGWYRQATGKEREMVAAISWTGGRTYYADSVKGRFTISRDNAKNTVYLQMNSLKPDDTAVYYCAADFSWTPSGNYDSWGQGTQVTVSS
Solution: low polyreactivity

Exercise: Determine its reported polyreactivity (PSR sort gate): QVQLVESGGGLVQAGGSLRLSCAASGSIFEGNGMGWYIQAPGKERELVAAITFRSGSTYYADSVKGRFTISLDNAKNTVYLQMNSLKPEDTAVYYCAADEYYQVSAYDYWGQGTQVTVSS
Solution: low polyreactivity

Exercise: For QVQLVESGGGLVQAGGSLRLSCAASGSTFDRYAMGWYRQAPGNERELVAAISSSGGTTYYADSVKGRFTITRDNAKTTVYVQMNSLKPEDTAVYYCAAVRYYESRGGYDYWGQGPQVTVSS , write its polyreactivity (PSR sort gate).
Solution: low polyreactivity

Exercise: Identify measured polyreactivity (PSR sort gate) corresponding to QDQLVDSGGGLVQAGGSLRLSCAASGSIQSRYAMGWYRQAPGKERELVAAISRSTDSTYYADSVKGRFTISRDNAKNTVYLKMNSLKPEDTAGYYCNAVYRSSYQKGSMDYWGQGTQVTVSS
Solution: high polyreactivity

Exercise: Please report polyreactivity (PSR sort gate) for the following sequence: QVQLVESGGGLVQARGSLRLSCAASGFNISNYAMGWYREAPGKESELVAAIRRSGGSTYYADSVKGRFTISRDNAKNTVYLQMNSRKPEDTAVYYCAAYPKRGSRYDYWGLGTQVTVSS
Solution: high polyreactivity

Exercise: Look up and report measured polyreactivity (PSR sort gate) for this entry: QDQLVESGGGLDQAGGSLRLSCAASGSTFQLYAMGWYRQAPGKERELVAAISGIGDSTYYADSVKGRFTISRDNAKNTVYLQMNSLKPEDTAVYYCDREFSDGLSGKFDYWGQGTQVTVSS
Solution: low polyreactivity

Exercise: Give the reported polyreactivity (PSR sort gate) for this sequence. QVQLVESGGGLVQAGGSLRLSCAASGFTFTYYAMGWYRQAPGKERELVATISSGGSTYYADSVKGRFTISRDNAKNTVYLQMNSLKPEDTAVYYCAAERGAITPLVYPPEFDYWGHGTQVTVSS
Solution: low polyreactivity

Exercise: Note polyreactivity (PSR sort gate) for the sequence shown: QVQLVESGGGLVQAGGSLRLSCAASGITFRLYAMGWYRQAPGKERELVAAISKRGGSTYYADSVKGRFTISRDNAKNTVYLPMNSLKPDDTAVYYCAADSGWEHRYDYWGQGTQVTVSS
Solution: high polyreactivity

Exercise: Look up and state reported polyreactivity (PSR sort gate) for QVQLVESGGGLVQAGGSLRLSCAASGFTFLYNVMGWYRQAPGKERELVAAISQSGTDTYYADSVKGRFTISRDNAKYTVYLQMNSLKPEDTAVYYCAVDVYFYYRHYGYWGQGTQVTVSS
Solution: low polyreactivity

Exercise: Note down polyreactivity (PSR sort gate) recorded for QFQLVESGGGLVQAGGSLRLSCAASGRSFNRNAMGWYRQAPGKERELVAAISRSGTRTYYADSVKGRFTISRDNAKNTVYLQMNSLKPEDTAVYYCNALRVDGGDYWGQGTQVTVSS
Solution: high polyreactivity

Exercise: Look up polyreactivity (PSR sort gate) of QVQLVESGGGLVQAGGSLRLSCADSGFTFSWYTMGWYRQAPGKERELVAAITVSGGSTYYADSVKGRFTISRDYAKNTVYLQMNSLKPEDTAVYYCNAQDPFTYYSSSPTYDYWGQGTQVTVSS and report it.
Solution: low polyreactivity

Exercise: Provide only the value of recorded polyreactivity (PSR sort gate) for QVQLVESGGGLVQAGGSLRLSCAASGRILYRNTMGWYRQAPGKERELVAAISRSGGSTYYADSVKGRFTISRDNAKNTVYLQMNSLKPEDTAVYYCAKSVVARGASTYIGGFYYWGQGTQVTVSS
Solution: high polyreactivity

Exercise: Please give measured polyreactivity (PSR sort gate) of the following entry: QVQLVESGGGLVQAGGRLRLSCAASGSTFYLNAMGWYRQAPGQERELVAAINGGGSTNYADSVKGRFTISRDNAKNTVYLQRNSLKPEDTAVYYCAAETSYANRDRFDYWGQGTQVTVSS
Solution: low polyreactivity

Exercise: Read the entry QVQLVESGGGLVQAGGSLRLSCAASGSIFLPNAMGWYRQAPGKERELVARITSTGSTNYADSVKGRFTISRDNAKNTVYLQMNSLKPEDTAVYYCAADYYPFYVKREQAYPDIPYDSWGQGTQVTVSS and write its reported polyreactivity (PSR sort gate).
Solution: low polyreactivity

Exercise: Give a short answer stating reported polyreactivity (PSR sort gate) for QVQLVESGGGLVQAGGSLRLSCAASGSIFGYYAMGWSRQAPGKEREVVAAISASGGSTYYADSVKGRFTISRDTAKNTVYLQMNSLKPEDTAVYYCAAVRSVTYIWARYPYGLEYWGQGTQVTVSS .
Solution: high polyreactivity

From: the nanobody polyreactivity screen of Harvey et al. (2022)
